TESTED SYSTEM: CD33 (Sino Biological, Cat #12238-H08H) (UniProt P20138 18-259)
Sequence (P20138 18-259 limits assumed): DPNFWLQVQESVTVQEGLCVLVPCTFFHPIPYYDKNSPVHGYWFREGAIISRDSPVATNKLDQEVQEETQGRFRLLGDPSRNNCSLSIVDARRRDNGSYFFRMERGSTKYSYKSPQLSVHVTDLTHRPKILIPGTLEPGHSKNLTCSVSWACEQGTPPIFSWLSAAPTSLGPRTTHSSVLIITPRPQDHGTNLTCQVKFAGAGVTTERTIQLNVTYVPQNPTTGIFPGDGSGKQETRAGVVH
TEST DETAILS: BLI, IgG captured on anti-human Fc sensor, 50 nM CD33, pH 7.4 vs pH 5.4
METRIC: binding result

[[record]]
binder = "MYT1219 (antibody, V domains shown, IgG; IMGN779 VH variant #7 (Y32H)) VH: QVQLQQPGAEVVKPGASVKMSCKASGYTFTSHYIHWIKQTPGQGLEWVGVIYPGNDDISYNQKFQGKATLTADKSSTTAYMQLSSLTSEDSAVYYCAREVRLRYFDVWGQGTTVTVSS VL: EIVLTQSPGSLAVSPGERVTMSCKSSQSVFFSSSQKNYLAWYQQIPGQSPRLLIYWASTRESGVPDRFTGSGSGTDFTLTISSVQPEDLAIYYCHQYLSSRTFGQGTKLEIK"
value = "binds"

[[record]]
binder = "MYT1235 (antibody, V domains shown, IgG; IMGN779 VH variant #23 (Q62H)) VH: QVQLQQPGAEVVKPGASVKMSCKASGYTFTSYYIHWIKQTPGQGLEWVGVIYPGNDDISYNHKFQGKATLTADKSSTTAYMQLSSLTSEDSAVYYCAREVRLRYFDVWGQGTTVTVSS VL: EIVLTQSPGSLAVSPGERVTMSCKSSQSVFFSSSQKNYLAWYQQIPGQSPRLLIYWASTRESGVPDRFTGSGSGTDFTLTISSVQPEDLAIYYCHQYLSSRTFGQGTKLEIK"
value = "binds"

